experiment: Oral bioavailability of hydromorphone conjugates (plasma hydromorphone after oral gavage); conditions: rat, relative to hydromorphone control
Where a name gives a salt, the structure may show the parent alone. Residues, ends and D or L forms follow the SMILES beside them. *: point of attachment. X2 = CN1CC[C@]23c4c5ccc(O)c4O[C@H]2C(O*)=CC[C@H]3[C@H]1C5
Parameter threshold = 60%. Response is satisfied when Oral Cmax % (corrected value based on control HM) meets or exceeds it, else not satisfied.

Take a look at these entries with their results.
CC(C)C[C@H](NC(=O)[C@@H]1CCCN1C(=O)[C@@H]1CCCN1)C(=O)OC1=CC[C@H]2[C@H]3Cc4ccc(O)c5c4[C@@]2(CCN3C)[C@H]1O5 [PPL-HM]    not satisfied
CC(C)C[C@H](NC(=O)[C@H](CCCCN)NC(=O)[C@@H](N)CCCCN)C(=O)OC1=CC[C@H]2[C@H]3Cc4ccc(O)c5c4[C@@]2(CCN3C)[C@H]1O5 [KKL-HM]    not satisfied
CC[C@H](C)[C@H](NC(=O)CNC(=O)CN)C(=O)OC1=CC[C@H]2[C@H]3Cc4ccc(O)c5c4[C@@]2(CCN3C)[C@H]1O5 [GGI-HM]    not satisfied
CC[C@H](C)[C@H](NC(=O)[C@H](Cc1ccc(O)cc1)NC(=O)[C@@H](N)Cc1ccc(O)cc1)C(=O)OC1=CC[C@H]2[C@H]3Cc4ccc(O)c5c4[C@@]2(CCN3C)[C@H]1O5 [YYI-HM]    satisfied
CC[C@H](C)[C@H](NC(=O)[C@H](Cc1ccccc1)NC(=O)[C@H](Cc1ccccc1)NC(=O)[C@H](Cc1ccc(O)cc1)NC(=O)[C@@H](N)Cc1ccc(O)cc1)C(=O)OC1=CC[C@H]2[C@H]3Cc4ccc(O)c5c4[C@@]2(CCN3C)[C@H]1O5 [YYFFI-HM] (H-YYFFI-X2)    not satisfied

In: Does the reported Oral Cmax % (corrected value based on control HM) for CC(C)C[C@H](NC(=O)CNC(=O)CN)C(=O)OC1=CC[C@H]2[C@H]3Cc4ccc(O)c5c4[C@@]2(CCN3C)[C@H]1O5 [GGL-HM] fall at or above the 60% mark?
Out: not satisfied

In: Exam item: decide whether the reported Oral Cmax % (corrected value based on control HM) for CN1CC[C@]23c4c5ccc(O)c4O[C@H]2C(OC(=O)[C@H](Cc2ccccc2)NC(=O)[C@H](Cc2ccccc2)NC(=O)[C@H](Cc2ccccc2)NC(=O)[C@H](CCC(=O)O)NC(=O)[C@@H](N)CCC(=O)O)=CC[C@H]3[C@H]1C5 [EEFFF-HM, Glu2-Phe3-Hydromorphone.Dihydrochloride] (H-EEFFF-X2) is at least 60%.
Out: satisfied

In: Does Oral Cmax % (corrected value based on control HM) meet or surpass 60% for CC(C)[C@H](NC(=O)CNC(=O)CN)C(=O)OC1=CC[C@H]2[C@H]3Cc4ccc(O)c5c4[C@@]2(CCN3C)[C@H]1O5 [GGV-HM] ?
Out: satisfied

In: Say whether CC[C@H](C)[C@H](NC(=O)[C@H](CCC(=O)O)NC(=O)[C@@H](N)CCC(=O)O)C(=O)OC1=CC[C@H]2[C@H]3Cc4ccc(O)c5c4[C@@]2(CCN3C)[C@H]1O5 [EEI-HM] shows Oral Cmax % (corrected value based on control HM) of 60% or more.
Out: satisfied

In: Exam item: decide whether the reported Oral Cmax % (corrected value based on control HM) for CC(C)[C@H](NC(=O)[C@H](Cc1ccc(O)cc1)NC(=O)[C@@H](N)Cc1ccc(O)cc1)C(=O)OC1=CC[C@H]2[C@H]3Cc4ccc(O)c5c4[C@@]2(CCN3C)[C@H]1O5 [YYV-HM] is at least 60%.
Out: not satisfied

----------
assay: Oral bioavailability of hydromorphone conjugates (plasma hydromorphone after oral gavage); conditions: rat, relative to hydromorphone control
Documented Oral Cmax % (corrected value based on control HM) across a set of molecules
Hi! Could you send only the number? It should be in %, unit omitted.

CC[C@H](C)[C@H](NC(=O)[C@H](CCCCN)NC(=O)[C@@H](N)CCCCN)C(=O)OC1=CC[C@H]2[C@H]3Cc4ccc(O)c5c4[C@@]2(CCN3C)[C@H]1O5    56

In: What measured Oral Cmax % (corrected value based on control HM) goes with CC(C)C[C@H](NC(=O)[C@H](Cc1ccc(O)cc1)NC(=O)[C@@H](N)Cc1ccc(O)cc1)C(=O)OC1=CC[C@H]2[C@H]3Cc4ccc(O)c5c4[C@@]2(CCN3C)[C@H]1O5 ?
Out: 30

In: If you can, please state the reported Oral Cmax % (corrected value based on control HM) value of CC(C)C[C@H](NC(=O)[C@H](Cc1ccccc1)NC(=O)[C@@H](N)Cc1ccccc1)C(=O)OC1=CC[C@H]2[C@H]3Cc4ccc(O)c5c4[C@@]2(CCN3C)[C@H]1O5 .
Out: 24

In: Please look up its Oral Cmax % (corrected value based on control HM): CC(C)[C@H](NC(=O)[C@@H]1CCCN1C(=O)[C@@H]1CCCN1)C(=O)OC1=CC[C@H]2[C@H]3Cc4ccc(O)c5c4[C@@]2(CCN3C)[C@H]1O5
Out: 55

In: Fill in: Oral Cmax % (corrected value based on control HM) of CC(C)[C@H](NC(=O)[C@H](CCC(=O)O)NC(=O)[C@@H](N)CCC(=O)O)C(=O)OC1=CC[C@H]2[C@H]3Cc4ccc(O)c5c4[C@@]2(CCN3C)[C@H]1O5 is ___
Out: 50

----------
assay: Intranasal bioavailability of hydromorphone conjugates (plasma hydromorphone after intranasal dosing); format: in vivo, male Sprague-Dawley rats; conditions: rat, relative to hydromorphone control
Structures can show the parent of a compound that is named as a salt. Residues, ends and D or L forms follow the SMILES beside them. *: point of attachment. X5 = CC(=O)Oc1ccc2c3c1O[C@H]1C(O*)=CC[C@H]4[C@@H](C2)N(C)CC[C@]314; X2 = CN1CC[C@]23c4c5ccc(O)c4O[C@H]2C(O*)=CC[C@H]3[C@H]1C5
Please note: condition met applies when IN Cmax % (corrected value based on control HM) is 90% or greater, and condition not met applies otherwise.

Completed entries (count: 10):
CC[C@H](C)[C@H](NC(=O)[C@H](Cc1ccc(O)cc1)NC(=O)[C@@H](N)Cc1ccc(O)cc1)C(=O)OC1=CC[C@H]2[C@H]3Cc4ccc(O)c5c4[C@@]2(CCN3C)[C@H]1O5    condition not met
CC[C@H](C)[C@H](NC(=O)CNC(=O)CN)C(=O)OC1=CC[C@H]2[C@H]3Cc4ccc(O)c5c4[C@@]2(CCN3C)[C@H]1O5    condition not met
CC(C)[C@H](NC(=O)[C@H](Cc1ccccc1)NC(=O)[C@@H](N)Cc1ccccc1)C(=O)OC1=CC[C@H]2[C@H]3Cc4ccc(O)c5c4[C@@]2(CCN3C)[C@H]1O5    condition met
CC(C)[C@H](NC(=O)[C@H](CCC(=O)O)NC(=O)[C@@H](N)CCC(=O)O)C(=O)OC1=CC[C@H]2[C@H]3Cc4ccc(O)c5c4[C@@]2(CCN3C)[C@H]1O5    condition not met
CC(C)C[C@H](NC(=O)[C@H](CCCCN)NC(=O)[C@@H](N)CCCCN)C(=O)OC1=CC[C@H]2[C@H]3Cc4ccc(O)c5c4[C@@]2(CCN3C)[C@H]1O5    condition met
CC(C)C[C@H](NC(=O)[C@@H]1CCCN1C(=O)[C@@H]1CCCN1)C(=O)OC1=CC[C@H]2[C@H]3Cc4ccc(O)c5c4[C@@]2(CCN3C)[C@H]1O5    condition not met
CC(C)[C@H](NC(=O)CNC(=O)CN)C(=O)OC1=CC[C@H]2[C@H]3Cc4ccc(O)c5c4[C@@]2(CCN3C)[C@H]1O5    condition not met
CC[C@H](C)[C@H](NC(=O)[C@H](Cc1ccccc1)NC(=O)[C@H](Cc1ccccc1)NC(=O)[C@H](Cc1ccc(O)cc1)NC(=O)[C@@H](N)Cc1ccc(O)cc1)C(=O)OC1=CC[C@H]2[C@H]3Cc4ccc(OC(C)=O)c5c4[C@@]2(CCN3C)[C@H]1O5 [YYFFI-HM-OAc] (H-YYFFI-X5)    condition not met
CC(C)C[C@H](NC(=O)CNC(=O)CN)C(=O)OC1=CC[C@H]2[C@H]3Cc4ccc(O)c5c4[C@@]2(CCN3C)[C@H]1O5    condition not met
CC(C)[C@H](NC(=O)[C@@H]1CCCN1C(=O)[C@@H]1CCCN1)C(=O)OC1=CC[C@H]2[C@H]3Cc4ccc(O)c5c4[C@@]2(CCN3C)[C@H]1O5    condition met

In: Answer whether IN Cmax % (corrected value based on control HM) of CC(C)C[C@H](NC(=O)[C@H](Cc1ccc(O)cc1)NC(=O)[C@@H](N)Cc1ccc(O)cc1)C(=O)OC1=CC[C@H]2[C@H]3Cc4ccc(O)c5c4[C@@]2(CCN3C)[C@H]1O5 is greater than or equal to 90%.
Out: condition not met

In: Textbook exercise: given the entry CC[C@H](C)[C@H](NC(=O)[C@@H]1CCCN1C(=O)[C@@H]1CCCN1)C(=O)OC1=CC[C@H]2[C@H]3Cc4ccc(O)c5c4[C@@]2(CCN3C)[C@H]1O5 , state whether its IN Cmax % (corrected value based on control HM) is greater than or equal to 90%.
Out: condition met

In: Could you please find out whether CC(C)C[C@H](NC(=O)[C@H](Cc1ccccc1)NC(=O)[C@@H](N)Cc1ccccc1)C(=O)OC1=CC[C@H]2[C@H]3Cc4ccc(O)c5c4[C@@]2(CCN3C)[C@H]1O5 has IN Cmax % (corrected value based on control HM) that meets 90% or exceeds it?
Out: condition met

In: Is IN Cmax % (corrected value based on control HM) for CN1CC[C@]23c4c5ccc(O)c4O[C@H]2C(OC(=O)[C@H](Cc2ccccc2)NC(=O)[C@H](Cc2ccccc2)NC(=O)[C@H](Cc2ccccc2)NC(=O)[C@H](CCC(=O)O)NC(=O)[C@@H](N)CCC(=O)O)=CC[C@H]3[C@H]1C5 [EEFFF-HM, Glu2-Phe3-Hydromorphone.Dihydrochloride] (H-EEFFF-X2) at or above 90%?
Out: condition not met

In: # check: IN Cmax % (corrected value based on control HM) of CC[C@H](C)[C@H](NC(=O)[C@H](CCCCN)NC(=O)[C@@H](N)CCCCN)C(=O)OC1=CC[C@H]2[C@H]3Cc4ccc(O)c5c4[C@@]2(CCN3C)[C@H]1O5 is greater than or equal to 90%
Out: condition not met

In: Quick check: does CC(C)[C@H](NC(=O)[C@H](Cc1ccc(O)cc1)NC(=O)[C@@H](N)Cc1ccc(O)cc1)C(=O)OC1=CC[C@H]2[C@H]3Cc4ccc(O)c5c4[C@@]2(CCN3C)[C@H]1O5 have IN Cmax % (corrected value based on control HM) greater than or equal to 90%?
Out: condition not met

In: Hello, I need to know if CC[C@H](C)[C@H](NC(=O)[C@H](Cc1ccccc1)NC(=O)[C@H](Cc1ccccc1)NC(=O)[C@H](Cc1ccc(O)cc1)NC(=O)[C@@H](N)Cc1ccc(O)cc1)C(=O)OC1=CC[C@H]2[C@H]3Cc4ccc(O)c5c4[C@@]2(CCN3C)[C@H]1O5 [YYFFI-HM] (H-YYFFI-X2) has measured IN Cmax % (corrected value based on control HM) not below 90%. Thanks!
Out: condition not met

In: Would you say CC(C)C[C@H](NC(=O)[C@H](CCC(=O)O)NC(=O)[C@@H](N)CCC(=O)O)C(=O)OC1=CC[C@H]2[C@H]3Cc4ccc(O)c5c4[C@@]2(CCN3C)[C@H]1O5 shows IN Cmax % (corrected value based on control HM) at minimum 90%?
Out: condition met

These measurements were taken from patent US20080207668A1.
